- experimental target: Sigma non-opioid intracellular receptor 1 (Rattus norvegicus)
- test: Ratio of the binding affinity against Sigma receptor type 2 to that of Sigma receptor type 1
Quick rule for you: Ratio at 3 or higher means true, lower means false.

-- ask Form field: Ratio at least 3? Entry: CC1C2Cc3cc(Cl)c(O)c(Cl)c3C1(C)CCN2Cc1ccccc1 (stereo unspecified)
-- reply true

-- ask Item CC1C2Cc3cc(Br)c(O)cc3C1(C)CCN2Cc1ccccc1 (stereo unspecified) with Ratio of 3 or above?
-- reply true

-- ask Is reported Ratio greater than or equal to 3 here: CC(C)=CCN1CCC2(C)c3cc(O)c(Br)cc3CC1C2C (single isomer, unassigned; (-))
-- reply false

-- ask In plain terms: is recorded Ratio at least 3 for CC(C)=CCN1CCC2(C)c3cc(O)c(I)cc3CC1C2C (stereo in doubt; (+)-5b) ?
-- reply false

-- ask I'd appreciate it if you could say whether CC(C)=CCN1CCC2(C)c3cc(O)c(Br)cc3CC1C2C (single isomer, unassigned; (+)) has Ratio at least equal to 3.
-- reply true

-- ask Would you say CC(C)=CCN1CCC2(C)c3cc(O)c(I)cc3CC1C2C (stereo in doubt; (-)-5b) shows Ratio at minimum 3?
-- reply false

-- ask hey, is Ratio for this one >= 3? CC1C2Cc3ccc(O)cc3C1(C)CCN2Cc1ccccc1 (stereo unspecified)
-- reply true

-- ask Dear colleague, could you confirm whether CC1C2Cc3ccc(O)c(Br)c3C1(C)CCN2Cc1ccccc1 (single isomer, unassigned; (+)) has Ratio at or above 3?
-- reply true

-- ask Entry CC1C2Cc3cc(Br)c(O)c(Br)c3C1(C)CCN2Cc1ccccc1 (single isomer, unassigned; (+)) : is its Ratio no less than 3?
-- reply true

-- ask Identify whether the reported Ratio of the following molecule is 3 or greater: CC1C2Cc3ccc(O)c(Cl)c3C1(C)CCN2Cc1ccccc1 (single isomer, unassigned; (+))
-- reply true

-- ask Would you say CC(C)=CCN1CCC2(C)c3c(cc(Br)c(O)c3Br)CC1C2C (single isomer, unassigned; (+)) shows Ratio at minimum 3?
-- reply false
